- SYSTEM_NAME: SARS-CoV-2 spike protein bearing furin mutation and truncation in retention sequence, on pseudovirus (SARS-CoV-2, UniProt P0DTC2 14-1255)
- MEASUREMENT_DESCRIPTION: cell-based or functional assay
RECORDED_METRIC: pseudovirus neutralisation IC50 (nM)
// return numeric value only (unit: nM, not printed)

YANG-2205 (antibody, V domains shown) VH: QIQLVQSGAEVKKPGASVKFSCKTSGYTFTSYYMVWVRQAPGQGLEWMGIIKPSGGNTIYAQKFQGRVTMTRDTSTNTVYMDLSSLRSEDTAVYYCARTGDRAFDVWGHGTMITVSS VL: QSVLTQPPSVSAAPGQKVTISCSGSSSNIGNNFVSWYQQFPGTAPKLLIYDNNKRPSGIPDRFSGSKSGTSATLGITGLQTGDEADYYCGTWDSSLGAGVFGGGTKLTVL; 3.35
YANG-2204 (antibody, V domains shown) VH: QMQLVQSGAEVKKPGASVKFSCKTSGYTFTNYYMVWVRQAPGQGLEWMGIIKPSGGNTIYAQKFQGRVTMTRDTSTNTVYMDLTSLRSEDTAVYYCARTGDRAFDVWGQGTMVTVSS VL: QSVLTQPPSVSAAPGQKVTISCSGSSSNIGNNYVSWYQQLPGTAPKLLIYDNNKRPSGIPDRFSGSKSGTSATLGITGLQTGDEADYYCGTWDSSLGAGVFGGGTKLTVL; 3.3

Pending binder:
Query (binder): YANG-2111 (antibody, V domains shown) VH: GVQLVESGGGLVQPGRSLRLSCAASGFTFDDYALHWVRQVPGKGLEWVSSISWNSDDLGYADSVEGRFTISRDNAKNSLYLQMSSLRTEDTALYYCVKDTRAHYDILAGYRGLDSWGQGTLVTVSS VL: DIVMTQSPLSLPVTPGEPASISCRSTQSLLHSNGYNFLDWYLQKPGQSPQLLIYLGSNRASGVPDRFSGSGSGTDFSLKISRVEAEDIGIYYCIQGLQTPITFGQGTRLEIK ; field requested: pseudovirus neutralisation IC50 1.33
